# TESTED TARGET: OX1 (Homo sapiens)
# Construct: expressed in transfected cells; host or cells: CHO (CHO-OX1, kept under selection antibiotic)
# Sequence (O43613 whole entry): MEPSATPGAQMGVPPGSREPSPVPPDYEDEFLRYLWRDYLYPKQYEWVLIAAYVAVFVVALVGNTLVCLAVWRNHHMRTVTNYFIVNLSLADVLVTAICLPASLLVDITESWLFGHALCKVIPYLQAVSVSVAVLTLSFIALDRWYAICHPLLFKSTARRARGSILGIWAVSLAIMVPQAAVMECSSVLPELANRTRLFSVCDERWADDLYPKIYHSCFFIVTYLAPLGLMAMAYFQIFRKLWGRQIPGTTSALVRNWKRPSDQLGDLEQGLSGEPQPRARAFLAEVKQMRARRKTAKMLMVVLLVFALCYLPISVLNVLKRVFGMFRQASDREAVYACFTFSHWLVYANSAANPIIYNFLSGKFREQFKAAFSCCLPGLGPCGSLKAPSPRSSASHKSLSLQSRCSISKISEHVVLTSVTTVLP
# TEST DESCRIPTION: Orexin receptor cell-based functional assay, [Ca2+]i by FLIPR, CHO-OX1 cells
# CONDITION LABEL: CHO-OX1 cells, [Ca2+]i by FLIPR, antagonist dose-range 0.1 nM-10 μM, EC90 of OXA; read-out: OX1
Answer each item with its documented pIC50.
Scale note: pIC50 = -log10(concentration in M).

[ask] Fill in pIC50 for record "Cc1ccc(-c2ncccn2)c(C(=O)N2CCC[C@@H](C)[C@H]2CNc2ncc(C(F)(F)F)cn2)c1F"
[reply] 8.10

[ask] Fill in pIC50 for record "Cc1ccc(-n2nccn2)c(C(=O)N2CCC[C@@H](C)[C@H]2CNc2ncc(Cl)cn2)n1"
[reply] 8.30

[ask] Fill in pIC50 for record "Cc1ccc(-c2ccccn2)c(C(=O)N2CCC[C@@H](C)[C@H]2CNc2ccc(Cl)cn2)c1"
[reply] 7.43
